Test system: pedal ganglia
Experiment: NO release from excised pedal ganglia (NO-selective microprobe)
Format: cell-based, Mytilus edulis
Run conditions: ligand 10^−7 M
Recorded NO Peak Time, one value per entry.

Compound: COc1ccc(C[C@H]2c3cc(O)c(OC)cc3CCN2C)cc1O [Reticuline, reticuline]
NO Peak Time [min]: 9.2
//
Compound: COC1=C[C@]23CCN(C)[C@H](Cc4ccc(OC)c(O)c42)C3=CC1=O [Salutaridine, salutaridine]
NO Peak Time [min]: 8.9
//
Compound: CN1CC[C@]23c4c5ccc(O)c4O[C@H]2[C@@H](O)CC[C@H]3[C@H]1C5 [Dihydromorphine, dihydromorphine]
NO Peak Time [min]: 0.9
//
Compound: CN1CC[C@]23c4c5ccc(O)c4O[C@H]2[C@@H](O)C=C[C@H]3[C@H]1C5 [Morphine, morphine]
NO Peak Time [min]: 0.8

* * *

Measured target: mu3 opiate receptor (Homo sapiens, UniProt P35372)
Construct: An additional 100 excised pedal ganglia and the human monocytes were separately washed and homogenized; host or cells: human monocytes
Sequence (P35372 1-314 isoform P35372-14): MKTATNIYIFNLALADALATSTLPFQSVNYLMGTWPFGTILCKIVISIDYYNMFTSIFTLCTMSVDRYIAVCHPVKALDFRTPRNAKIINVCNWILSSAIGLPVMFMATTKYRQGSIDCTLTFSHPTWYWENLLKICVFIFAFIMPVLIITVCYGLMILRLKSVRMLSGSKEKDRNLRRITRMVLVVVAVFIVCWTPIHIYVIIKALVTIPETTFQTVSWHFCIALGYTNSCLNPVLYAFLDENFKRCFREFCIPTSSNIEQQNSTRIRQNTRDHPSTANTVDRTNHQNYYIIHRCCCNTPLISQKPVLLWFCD
Experiment: biochemical
Format: binding
Run conditions: read-out: Monocytes IC50, displacement of 3H-dihydromorphine; mean +/− S.E.M., three experiments
Endpoint label: IC50

Compound: COc1ccc(C[C@H]2c3cc(O)c(OC)cc3CCN2C)cc1O [Reticuline, reticuline]
Measured value: > 1 µM

* * *

Recorded IC50, one value per entry.
Measured target: mu3 opiate receptor (Homo sapiens)
Construct: An additional 100 excised pedal ganglia and the human monocytes were separately washed and homogenized; host or cells: human monocytes
Experiment: biochemical
Type: binding
Endpoint label: IC50 (nM)

Compound: CN1CC[C@]23c4c5ccc(O)c4O[C@H]2[C@@H](O)CC[C@H]3[C@H]1C5 [Dihydromorphine, dihydromorphine]
Endpoint label: IC50
Comparison sign: =
Measured value: 19.1

Compound: COC1=C[C@]23CCN(C)[C@H](Cc4ccc(OC)c(O)c42)C3=CC1=O
Endpoint label: IC50
Comparison sign: >
Measured value: 1000

* * *

Measured target: UniProtKB A0A8S3SM58
Sequence (A0A8S3SM58 1-388): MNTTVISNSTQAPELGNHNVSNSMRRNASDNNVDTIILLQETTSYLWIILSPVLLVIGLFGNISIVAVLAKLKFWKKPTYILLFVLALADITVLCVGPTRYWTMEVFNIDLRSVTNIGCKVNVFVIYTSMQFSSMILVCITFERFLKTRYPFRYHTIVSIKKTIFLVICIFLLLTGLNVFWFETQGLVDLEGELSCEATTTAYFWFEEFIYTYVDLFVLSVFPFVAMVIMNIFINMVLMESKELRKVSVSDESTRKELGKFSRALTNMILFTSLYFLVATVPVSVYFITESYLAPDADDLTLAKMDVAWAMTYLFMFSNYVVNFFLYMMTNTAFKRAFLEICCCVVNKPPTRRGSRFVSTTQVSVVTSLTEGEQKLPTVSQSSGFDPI
pIC50: −log10 of the molar value.
Endpoint label: pIC50

Entry smiles: COc1ccc(C[C@H]2c3cc(O)c(OC)cc3CCN2C)cc1O
Endpoint label: pIC50
Measured value: < 6.00
